- measurement.parameters: buffer; pH 7.4; 200.0 µM
measured.endpoint: solubility kinetic

Reference set, count: 3
In [3]: df
Out[3]:
                                   molecule        result
0                   N#Cc1ccc(CSc2ncccn2)cc1  > 34.1 µg/mL
1  C=CCn1c(O)c(C(C)=NCCCn2ccnc2)c(=O)[nH]c1=O  > 47.6 µg/mL
2              C#CCn1ccc(O)c(Cc2ccccc2)c1=O  > 35.9 µg/mL

Please go through the list and note solubility kinetic for each molecule.
1. COc1ccc(Cc2nc3ccccc3[nH]2)cc1OC
2. CCC(=O)NC1CCN(C(=S)NC)CC1
3. COc1ccccc1NS(=O)(=O)c1ccc2[nH]c(=O)[nH]c2c1

# output
["> 40.2 µg/mL", "> 34.4 µg/mL", "> 47.9 µg/mL"]

Please go through the list and note solubility kinetic for each molecule.
1. C=CCNC(=O)CN1N=C(c2ccc(C)cc2)CCC1=O
2. CCCn1c2ccccc2c2cnn(CC(=O)O)c(=O)c21
3. Cc1ccc(OCC(=O)NCCCNC(=O)c2ccncc2)cc1
4. CCOc1ccccc1CNCCNCC(C)O.Cl (stereo not given)

# output
1: > 42.8 µg/mL; 2: > 42.8 µg/mL; 3: > 49.1 µg/mL; 4: > 48.8 µg/mL

###

- measurement.parameters: buffer; pH 7.4; 200.0 µM
Please provide measured solubility kinetic for the entries that follow.

                            compound        result
0  O=C(O)c1cccc2c1/C(=N/O)c1ccccc1-2  > 35.9 µg/mL

Please go through the list and note solubility kinetic for each compound.
1. COc1ccc(C)cc1COC(=O)c1[nH]c(C)c(C(C)=O)c1C
2. CC(C)CNC(=O)N[C@@H](CC(C)C)C(=O)O
3. COc1ccc(Cl)cc1C(=O)n1cnc2ccccc21
4. COc1ccc(OCCSc2ncc(CO)n2C)cc1

# output
1. > 47.3 µg/mL
2. > 34.5 µg/mL
3. > 43 µg/mL
4. > 44.2 µg/mL

###

Please provide measured solubility kinetic for the entries that follow.
- measurement.parameters: buffer; pH 7.4; 200.0 µM

Reference set, count: 10
>>> df
                                   molecule        result
0           Nc1ccc(C(=O)[O-])c(O)c1.O.[Na+]  > 31.7 µg/mL
1             Cc1cc(C)cc(NC(=O)CCn2ccnc2)c1  > 36.5 µg/mL
2  O=C(COC(=O)C1CC(=O)N(Cc2ccco2)C1)Nc1ccc(F)cc1F (centres undefined)  > 56.7 µg/mL
3  CC(=O)Nc1ccc(NC(=O)COC(=O)c2cc(S(=O)(=O)N3CCCC3)ccc2O)cc1  > 69.2 µg/mL
4  CC1=C(C(=O)OC(C)C)C(c2ccccc2)NC(=O)N1C (centres undefined)  > 43.3 µg/mL
5         COC(=O)CNC(=O)COC(=O)/C=C/c1cccs1  > 42.5 µg/mL
6  C=CCN1CC[C@]23c4c5ccc(O)c4O[C@H]2C(=O)CC[C@@]3(O)[C@H]1C5.Cl  > 54.6 µg/mL
7         Cc1nnc(N2C(=O)c3ccc(Br)cc3C2=O)s1  > 48.6 µg/mL
8       Cc1cccc(OCC(=O)NCCNC(=O)c2cccnc2)c1    > 47 µg/mL
9  Cn1c(=O)c(C(=O)NCCCc2ccccc2)c(O)c2ccccc21   < 0.4 µg/mL

Please go through the list and note solubility kinetic for each molecule.
1. CCc1ccc(N2C(=O)CN(Cc3sccc3C)C2=S)cc1
2. Nc1cc(N)cc(C(=O)Nc2ccc3c(c2)C(=O)NC3=O)c1

# output
1. < 0.4 µg/mL
2. > 44.4 µg/mL

Please go through the list and note solubility kinetic for each molecule.
1. CN(c1ccc(OCC(=O)NC2CCC(O)CC2)cc1)S(=O)(=O)c1ccc(Cl)cc1 (centres undefined)
2. S=C(c1ccccc1)N1CCCC1

# output
1: > 67.9 µg/mL; 2: > 28.7 µg/mL

Please go through the list and note solubility kinetic for each molecule.
1. CC(CN1CCCC1)OC(=O)Cc1ccc(Cl)cc1.Cl (centres undefined)
2. COc1ccc(OC)c2nc(-c3ccncc3)ccc12
3. COc1ccc(CC(=O)NCCCc2ccccc2)cc1OC
4. CCC(C)[C@H](NC(=O)N1CCC(C)CC1)C(=O)O (some centres undefined)
5. COc1ccccc1NC(=S)NC1CCCCCCCCCCC1

# output
> 47.7 µg/mL
> 39.9 µg/mL
> 47 µg/mL
> 38.5 µg/mL
< 0.4 µg/mL

###

Please provide measured solubility kinetic for the entries that follow.
- measurement.parameters: buffer; pH 7.4; 200.0 µM
Give bare numbers, in mg/mL.

Reference set, count: 3
>>> df
                                   molecule  measurement_units  measured_number
0  CC(C)c1ccc(OC(=O)c2ccc3c(=O)n4c(nc3c2)CCC4)cc1              mg/mL           0.0083
1                     Cc1ccsc1CNCCc1ccccc1F              mg/mL           0.0271
2  COc1ccc(C2(C)NC(=O)N(CC(=O)NCC(=O)Nc3ccc(F)c(F)c3F)C2=O)cc1OC (configuration not stated)              mg/mL           0.0005

Please go through the list and note solubility kinetic for each molecule.
1. CC1(C)CC(=O)C(C(O)c2cccc([N+](=O)[O-])c2)C(C)(C)N1 (configuration not stated)
2. CCN1CCN(CCC(=O)Nc2cc(OC)cc(OC)c2)CC1
3. COc1ccc(NC(=O)CNc2ccccc2C(C)=O)cc1S(=O)(=O)N1CCOCC1
4. Cc1cc(OC2CCCCC2)nc(NCc2ccccc2)n1
5. CCc1ccc2c(CN3CCN(S(=O)(=O)c4ccccc4F)CC3)cc(=O)oc2c1
6. OCc1ccccc1CN1CCCCCC1
7. O=C(CNCc1ccccc1)Nc1ccc(Cl)cc1

# output
1. 0.0449
2. 0.0352
3. 0.0639
4. 0.0003
5. 0.0034
6. 0.0288
7. 0.0386

Please go through the list and note solubility kinetic for each molecule.
1. CCn1c(NC(=O)/C=C/c2ccc(F)cc2)nc2ccccc21
2. CS(=O)(=O)N(CC(=O)Nc1cccc(Br)c1)Cc1ccccc1
3. COc1ccccc1NC(=O)CC1SC(=N)N(c2ccccc2)C1=O (configuration not stated)
4. CCc1noc(C)c1C(=O)OCC(=O)Nc1cccc(C)c1
5. O=C(CSc1ccccc1)NCCc1ccccc1
6. O=[N+]([O-])c1ccc(-c2cn3ccccc3n2)cc1
7. COc1ccc(C(=O)NCc2ccccc2C)cc1S(=O)(=O)NC1CCCC1

# output
[0.0035, 0.0513, 0.0053, 0.0204, 0.0394, 0.0017, 0.0336]

###

- measurement.parameters: buffer; pH 7.4; 200.0 µM
Please provide measured log10 of solubility kinetic for the entries that follow.
# values: log10(solubility kinetic), units µg/mL

Reference set, count: 3
                                   compound  measured_number
0  O=C(CCc1ccccc1)NC1C2CC3CC(C2)CC1C3 (configuration not stated)             1.54
1      Cc1cccc(C)c1N1C(=O)CN(Cc2ccccc2)C1=S             1.44
2  CCOC(=O)/C(=C/c1ccc(OC(=O)c2ccncc2)cc1)C(C)=O             1.62

Please go through the list and note log10 of solubility kinetic for each compound.
1. Cc1ccn2c(NC3CCCC3)c(-c3ccncc3)nc2c1
2. CN(Cc1c(F)cccc1Cl)C(=O)c1cnc2ccccc2n1
3. O=C(Nc1nc2cc3c(cc2s1)OCCO3)c1cccs1
4. O=[N+]([O-])c1ccc(Nc2ccccn2)c([N+](=O)[O-])c1
5. COc1ccc(-c2nc(N)nc(C(F)(F)F)c2-c2csc(C)n2)c(O)c1
6. O=c1[nH]c(O)c(C=Nc2cc(F)cc(F)c2)c(=O)[nH]1
7. CSc1ncccc1C(=O)OCC(=O)NCCc1ccccc1
8. Cc1c(NC(=O)c2ccccc2NC(=O)c2ccccc2)cccc1C(=O)O

# output
1.55
1.58
-0.22
0.43
0.41
0.45
1.45
1.74

Please go through the list and note log10 of solubility kinetic for each compound.
1. COc1ccc(Cl)cc1NC(=O)CN1C(=O)NC(Cc2c[nH]c3ccccc23)C1=O (configuration not stated)
2. CN1C(=O)c2ccccc2N(C)C1c1ccc(F)cc1 (configuration not stated)
3. Cc1ccc2nc(SCC3CCCCO3)[nH]c2c1 (configuration not stated)
4. COC(=O)/C=C1/SC(=NC(=O)c2ccc(OC)cc2)NC1=O

# output
0.83
1.49
1.57
0.96

Please go through the list and note log10 of solubility kinetic for each compound.
1. Cc1ccc(CC2C(=O)N(c3ccc(F)cc3)C(=O)C2C)cc1 (configuration not stated)
2. Cc1ccc(C23CC4CC(CC(C(N)=O)(C4)C2)C3)cc1
3. O=C(Cc1nc2ccccc2[nH]1)c1ccc([N+](=O)[O-])cc1

# output
0.52
1.22
1.58
